Hey, just so you know, these numbers are from ChEMBL document CHEMBL1153196.

Overview of recorded logD for various compounds
testDetails: Lipophilicity, log D of the compound
Type: physicochemical
measurementParameters: octanol/water
reportedMetric: logD

> print(dat)
                                   compound  endpointresult
1  CN(C)CCCN1c2ccccc2Sc2ccc(Cl)cc21 [CHLORPROMAZINE]            2.15
2           N#Cc1ccc(-c2ccccc2O)cc1C(F)(F)F            3.63
3  C[C@]12CCC(=O)C=C1CC[C@@H]1[C@@H]2[C@@H](O)C[C@@]2(C)[C@H]1CC[C@]2(O)C(=O)CO [HYDROCORTISONE]            1.43
4  Clc1ccc(COC(Cn2ccnc2)c2ccc(Cl)cc2Cl)c(Cl)c1 (stereo not given) [MICONAZOLE]            5.55
5  CC(=O)CC(c1ccccc1)c1c(O)c2ccccc2oc1=O (stereo not given) [WARFARIN]            1.43
